- System: HEK-293T
- Assay: Multiplex assay against HEK293T;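 further: share of the cells with healthy nuclei that show this phenotype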
- Assay type: toxicity, cell-based
- Assay Conditions: human, 24 h, 1 µM, compound concentration 1 uM, replicate 2
Value Kind: Population Tubulin-Different-Phenotype (%)
The answer is to be given in %; state only the numeric part.

Population Tubulin-Different-Phenotype (%) for NC(=O)c1cccc(-c2cc(Nc3ccc(OC(F)(F)F)cc3)ncn2)c1 ?
6

Find the recorded Population Tubulin-Different-Phenotype (%) belonging to Cl.O=c1c2cccn2c2ccccc2n1CCCN1CCC(c2ccc(Cl)cc2)CC1 and report it.
65

Fill blank: measured Population Tubulin-Different-Phenotype (%) of the molecule CN[C@@H]1C[C@H]2O[C@@](C)([C@@H]1OC)n1c3ccccc3c3c4c(c5c6ccccc6n2c5c31)C(=O)NC4 is ____.
73

What measured Population Tubulin-Different-Phenotype (%) goes with CCN1CCN(c2ccc(Nc3cc(N(C)C(=O)Nc4c(Cl)c(OC)cc(OC)c4Cl)ncn3)cc2)CC1 ?
87
